tested on: BV-2; assay: cells; assay type: functional, cell-based; details: Mus musculus, BV-2, 24 h
Description: Cytotoxicity against mouse BV-2 cells assessed as reduction in cell viability measured after 24 hrs by MTT assay
observable: IC50 (µM)
Only the number, expressed in µM, is required.

Past entries and their recorded results:
>>> testvalue("CON(C)C(=O)Oc1cccc(C(=O)NCCc2c[nH]c3ccccc23)c1")
12.4
>>> testvalue("O=C(NCCc1c[nH]c2ccccc12)c1ccccc1OC(=O)N(c1ccccc1)c1ccccc1")
126
>>> testvalue("CCCCN(CCCC)C(=O)Oc1ccccc1C(=O)NCCc1c[nH]c2ccccc12")
116

Query string: Quick check: IC50 of O=C(NCCc1c[nH]c2ccccc12)c1ccccc1OC(=O)N1CCOCC1 ?
Result string: 82.8
